FYI, the data here is from PubChem BioAssay AID1159580.

- Test Description: chemical genetic growth profiling, strain panel (AID 1159580);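 also: tested at 20 µM; growth read once vehicle control cultures reached saturation at 30 °C; 1 = growth at the plate median or of vehicle wells; lower values mean less growth of the strain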
- Conditions Used: S. cerevisiae deletion strains, growth OD, locus YOR083W, strain WHI5 (second series), hits give low values
About 2,000 (36%) of roughly 5,500 compounds were called active. Another 18% or so got no clear call; they are omitted. The list shows a part of the results.
Observation Type: normalized growth
Lab note: write the figure by itself, no unit.

Example compounds with recorded normalized growth:
INSERT INTO measurements (compound, readout_value) VALUES
  ('CCC(CO)NC(=O)C1C=C2c3cccc4[nH]cc(c34)CC2N(C)C1 (centres undefined)', 0.996),
  ('CSc1nc(N)c2ncn([C@@H]3O[C@H](COP(=O)(O)OP(=O)(O)OP(=O)(O)O)[C@H](O)C3O)c2n1 (some centres undefined)', 1);

*Q* Endpoint output: normalized growth of CN1CC(C(=O)NC2(C)OC3(O)C4CCCN4C(=O)C(Cc4ccccc4)N3C2=O)CC2c3cccc4[nH]cc(c34)CC21 (centres undefined) . Value?
*A* 0.98

*Q* Endpoint output: normalized growth of O=c1c(O)c(-c2ccc(O)c(O)c2)oc2cc(O)cc(O)c12 . Value?
*A* 0.994

* * *

- Test Description: chemical genetic growth profiling, strain panel (AID 1159580)
- Conditions Used: S. cerevisiae deletion strains, growth OD, locus YLR371W, strain rom2, hits give low values
Among all 5,500 compounds or so, about 2,000 (36%) were called active. About 18% were inconclusive and are not listed. This is one part of the list.
Observation Type: normalized growth
Lab note: write the figure by itself, no unit.

Example molecules with recorded normalized growth:
INSERT INTO results (molecule, readout_value) VALUES
  ('CCCCC1C(=O)N(c2ccccc2)N(c2ccc(O)cc2)C1=O (stereo not drawn)', 0.971),
  ('CCc1cccc(CC)c1N(COC)C(=O)CCl', 1.02);

Now turn to the next molecule.
*Q* Endpoint output: normalized growth of COc1cc(OC)c2ccc(=O)oc2c1 . Value?
*A* 1.01

* * *

Measured normalized growth, listed per entry.
- Test Description: chemical genetic growth profiling, strain panel (AID 1159580)
- Conditions Used: S. cerevisiae deletion strains, growth OD, locus YMR078C, strain ctf18, hits give low values
Out of some 5,500 compounds screened, about 2,000 (36%) were called active. Another 18% or so got no clear call; they are omitted. This is one part of the list.
Lab note: write the figure by itself, no unit.

Example compounds with recorded normalized growth:
INSERT INTO assay_data (compound, observation_type, readout_value) VALUES
  ('CC1(C)C=CC(=O)[C@@]2(C)C1CC(=O)[C@]1(C)C2CC[C@@]2(C)[C@H](c3ccoc3)OC(=O)C3OC321 (stereo partly drawn)', 'normalized growth', 0.974),
  ('CC1(C)C2CC(=O)[C@]3(C)C(CC[C@@]4(C)[C@H](c5ccoc5)OC(=O)[C@H]5O[C@]543)[C@@]2(C)C(=O)C[C@H]1O (stereo partly drawn)', 'normalized growth', 1.02);

Now turn to the next compound.
*Q* Endpoint output: normalized growth of CC(=O)O[C@@H]1CC(=O)[C@@]2(C)C(CC(=O)[C@]3(C)C2CC[C@@]2(C)[C@H](c4ccoc4)OC(=O)C4OC423)C1(C)C (stereo partly drawn) . Value?
*A* 1.02

* * *

- Test Description: chemical genetic growth profiling, strain panel (AID 1159580)
- Conditions Used: S. cerevisiae deletion strains, growth OD, locus YNL153C, strain GIM3
The campaign covered roughly 5,500 compounds. About 2,000 (36%) were called active. Not shown: some 18% with an inconclusive outcome. Cut-off read from the data, not from the text of the source: active = normalized growth mostly below about 0.91 (no sharp cut-off); inconclusive = no clear call, values can overlap the other calls; inactive = mostly above about 0.92. The list shows a part of the results.
Could you please pick one outcome from this set? active, inactive

Record excerpt, results attached:
INSERT INTO assay_data (compound, group) VALUES
  ('NC(=Nc1ccccc1)NC(=O)c1nc(Cl)c(N)nc1N', 'inactive'),
  ('COC(=O)[C@@]1(C)CCC[C@]2(C)c3ccc(O)c(C(C)C)c3CCC12 (stereo not given in full)', 'active'),
  ('O=C1C=C2C(=CCOC2O)O1 (stereo not given)', 'active'),
  ('O=S(=O)(c1cccc2c(I)cccc12)N1CCCNCC1', 'inactive');

*Q* # outcome recorded in this test, key = CNC(=O)Oc1cccc2c1OC(C)(C)O2
*A* inactive

*Q* # outcome recorded in this test, key = CC(=O)Oc1ccc2c(c1C(C)C)CCC1C(C)(C)CCC[C@]21C (stereo not given in full)
*A* inactive

*Q* # outcome recorded in this test, key = O=C1NC(=O)C(c2ccccc2[N+](=O)[O-])=C1Nc1ccc(O)c(Cl)c1
*A* inactive

*Q* # outcome recorded in this test, key = COc1cc2c(cc1O)CC[C@@H]1[C@@H]2CC[C@]2(C)[C@@H](O)CC[C@@H]12
*A* inactive

*Q* # outcome recorded in this test, key = C/C(=N/NC(=S)Nc1ccc(C(C)C)cc1)c1ccco1
*A* active

*Q* # outcome recorded in this test, key = CCOC(=O)C1=C(N)Oc2ccc(Br)cc2C1C(C#N)C(=O)OCC (stereo not given)
*A* inactive

* * *

Measured normalized growth, listed per entry.
- Test Description: chemical genetic growth profiling, strain panel (AID 1159580)
- Conditions Used: S. cerevisiae deletion strains, growth OD, locus YNL322C, strain KRE1 (second series), hits give low values
In all, about 5,500 compounds went through this assay and about 2,000 (36%) were called active. Inconclusive results (about 18%) are left out. The list shows a part of the results.
Lab note: write the figure by itself, no unit.

Example molecules with recorded normalized growth:
INSERT INTO results (molecule, observation_type, readout_value) VALUES
  ('CC(=O)OC(C)C[N+](C)(C)C (stereo not drawn)', 'normalized growth', 1.01),
  ('C[C@]12C=CC(=O)C=C1CCC1C2[C@@H](O)C[C@@]2(C)C1CC[C@]2(O)C(=O)COP(=O)(O)O (stereo partly drawn)', 'normalized growth', 1),
  ('CC(=O)Oc1ccc2c(c1OC(C)=O)OCC1(O)Cc3c(cc(OC(C)=O)c(OC(C)=O)c3OC(C)=O)C21 (stereo not drawn)', 'normalized growth', 1);

Now turn to the next molecule.
*Q* Endpoint output: normalized growth of O=c1c(O)c(-c2ccc(O)c(O)c2)oc2c(O)c(O)cc(O)c12 . Value?
*A* 1.01

* * *

- Test Description: chemical genetic growth profiling, strain panel (AID 1159580);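 also: tested at 20 µM; growth read once vehicle control cultures reached saturation at 30 °C; 1 = growth at the plate median or of vehicle wells; lower values mean less growth of the strain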
- Conditions Used: S. cerevisiae deletion strains, growth OD, locus YMR263W, strain SAP30, hits give low values
Out of some 5,500 compounds screened, about 2,000 (36%) were called active. About 18% were inconclusive and are not listed. The list shows a part of the results.
Observation Type: normalized growth
Lab note: write the figure by itself, no unit.

INSERT INTO assay_data (molecule, observation_type, readout_value) VALUES
  ('CC(=O)Oc1ccc2c(c1OC(C)=O)OCC1(O)Cc3c(cc(OC(C)=O)c(OC(C)=O)c3OC(C)=O)C21 (stereo unspecified)', 'normalized growth', 1.01),
  ('O=C1CC(Nc2ccccc2)C=C1Nc1ccccc1 (stereo unspecified)', 'normalized growth', 1),
  ('CCC(c1ccc(O)cc1)C(CC)c1ccc(O)cc1 (stereo unspecified)', 'normalized growth', 0.973),
  ('CC1(C)CCC(NC(=O)[C@@H](N)CCC(=O)O)CC1', 'normalized growth', 0.999),
  ('CCCCCCCCCC(=O)NC(CN1CCOCC1)[C@H](O)c1ccccc1 (stereo partly specified)', 'normalized growth', 1);

Now turn to the next molecule.
*Q* Endpoint output: normalized growth of CC(C)(C)c1cc(/C=C(\C#N)C(N)=S)cc(C(C)(C)C)c1O . Value?
*A* 1.01

* * *

- Test Description: chemical genetic growth profiling, strain panel (AID 1159580);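 also: tested at 20 µM; growth read once vehicle control cultures reached saturation at 30 °C; 1 = growth at the plate median or of vehicle wells; lower values mean less growth of the strain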
- Conditions Used: S. cerevisiae deletion strains, growth OD, locus YBR231C, strain swc5, hits give low values
In all, about 5,500 compounds went through this assay and about 2,000 (36%) were called active. About 18% were inconclusive and are not listed. The list shows a part of the results.
Observation Type: normalized growth
Lab note: write the figure by itself, no unit.

*Q* Endpoint output: normalized growth of CCC(c1ccc(O)cc1)C(CC)c1ccc(O)cc1 (centres undefined) . Value?
*A* 0.989

*Q* Endpoint output: normalized growth of C=CC1C2=CCOC(=O)C2=COC1OC1OC(CO)C(O)C(O)C1O (centres undefined) . Value?
*A* 1.02

*Q* Endpoint output: normalized growth of COC1=CC(=O)C(O)=C/C1=C\C=C\c1ccccc1 . Value?
*A* 0.0663

* * *

- Test Description: chemical genetic growth profiling, strain panel (AID 1159580);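 also: tested at 20 µM; growth read once vehicle control cultures reached saturation at 30 °C; 1 = growth at the plate median or of vehicle wells; lower values mean less growth of the strain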
- Conditions Used: S. cerevisiae deletion strains, growth OD, locus YCL061C, strain MRC1, hits give low values
The campaign covered roughly 5,500 compounds. About 2,000 (36%) were called active. Roughly 18% stayed inconclusive and do not appear here. Some of the results follow.
Observation Type: normalized growth
Lab note: write the figure by itself, no unit.

Example compounds with recorded normalized growth:
INSERT INTO assay_data (compound, readout_value) VALUES
  ('CC1CC[C@@]2(OC1)O[C@H]1CC3C4CC[C@@H]5C[C@@H](O)CC[C@]5(C)C4CC[C@]3(C)[C@H]1[C@@H]2C (some centres not stated)', 1.02),
  ('OC1(C(F)(F)F)CC(c2ccccc2)=NN1 (configuration not stated)', 0.978),
  ('CN1C[C@H](C(=O)N[C@]2(C)O[C@@]3(O)[C@@H]4CCCN4C(=O)[C@H](Cc4ccccc4)N3C2=O)C[C@@H]2c3cccc4[nH]cc(c34)C[C@H]21', 0.998),
  ('CC1(C)O[C@H]2CC(=O)OC[C@]23[C@H]2CC[C@@]4(C)[C@H](c5ccoc5)OC(=O)[C@H]5O[C@]54[C@]2(C)C(=O)C[C@@H]13', 0.974),
  ('CN[C@@H]1[C@@H](O)C(OC2[C@@H](N)C[C@@H](N)[C@H](O[C@H]3O[C@H](C(C)O)[C@@H](O)[C@H](O)[C@H]3N)[C@H]2O)OC[C@]1(C)O (some centres not stated)', 0.985),
  ('Cc1cc(I)c(C)cc1I', 0.994),
  ('CCN[C@@H]1C[C@H](N)[C@@H](O[C@H]2OC(CN)=CC[C@H]2N)[C@H](O)[C@H]1OC1OC[C@](C)(O)[C@H](NC)[C@H]1O (some centres not stated)', 0.989),
  ('CC1(C)C(=O)C=C[C@@]2(C)C1C=C[C@]1(C)C2CC[C@@]2(C)[C@H](c3ccoc3)OC(=O)C3OC321 (some centres not stated)', 0.971);

*Q* Endpoint output: normalized growth of CC1(C)C=CC(=O)[C@@]2(C)C1CC(=O)[C@]1(C)C2CC[C@@]2(C)[C@H](c3ccoc3)OC(=O)C3OC321 (some centres not stated) . Value?
*A* 1.01

*Q* Endpoint output: normalized growth of OC1CC2CCCC(C1)N2Cc1ccccc1 (configuration not stated) . Value?
*A* 0.997

*Q* Endpoint output: normalized growth of CCCC(C)(COC(N)=O)COC(=O)NC(C)C (configuration not stated) . Value?
*A* 1

*Q* Endpoint output: normalized growth of C[C@@H]1CC[C@@]2(OC1)OC1CC3C4CC=C5C[C@@H](O)CC[C@]5(C)C4CC[C@]3(C)C1[C@@H]2C (some centres not stated) . Value?
*A* 0.999
